test system: Crude diglycosidase; experiment: Examination of pH in the conversion into isoflavone aglycons by diglycosidase using soybean materials; format: biochemical, Penicillium multicolor IAM7153; set-up: concentration or dose not given beside the values; details: pH4.8; heat treatment of enzyme: no; reaction time 3 h
MEASURE: Decomposition efficiency of genistin family in defatted soybean (%)

| MOLECULE | VALUE UNIT | DATA VALUE |
| --- | --- | --- |
| O=c1c(-c2ccc(O)cc2)coc2cc(O)cc(O)c12 | % | 61.9 |
| O=C(O)CC(=O)OC[C@H]1O[C@@H](Oc2cc(O)c3c(=O)c(-c4ccc(O)cc4)coc3c2)[C@H](O)[C@@H](O)[C@@H]1O | % | 37.5 |
| CC(=O)OC[C@H]1O[C@@H](Oc2cc(O)c3c(=O)c(-c4ccc(O)cc4)coc3c2)[C@H](O)[C@@H](O)[C@@H]1O | % | 0.6 |

====

system: Diglycosidase derived from P. multicolor; assay: Reactivity toward various isoflavone glycosides (HPLC); assay type: biochemical, Penicillium multicolor; parameters: unit not given here; conditions: Reaction time 6 h; 55 °C, pH 4.0
MEASURE: aglycon

| MOLECULE | STUDY TARGET | MEASURE | DATA VALUE |
| --- | --- | --- | --- |
| COc1cc2c(=O)c(-c3ccc(O)cc3)coc2cc1O[C@@H]1O[C@H](CO)[C@@H](O)[C@H](O)[C@H]1O | Diglycosidase derived from P. multicolor | aglycon | 99.7 |
| O=c1c(-c2ccc(O)cc2)coc2cc(O[C@@H]3O[C@H](CO)[C@@H](O)[C@H](O)[C@H]3O)cc(O)c12 | Diglycosidase derived from P. multicolor | aglycon | 0 |
| O=c1c(-c2ccc(O)cc2)coc2cc(O[C@@H]3O[C@H](CO)[C@@H](O)[C@H](O)[C@H]3O)ccc12 | Diglycosidase derived from P. multicolor | aglycon | 88.5 |
| O=C(O)CC(=O)OC[C@H]1O[C@@H](Oc2cc(O)c3c(=O)c(-c4ccc(O)cc4)coc3c2)[C@H](O)[C@@H](O)[C@@H]1O | Diglycosidase derived from P. multicolor | aglycon | 82.3 |
| COc1cc2c(=O)c(-c3ccc(O)cc3)coc2cc1O[C@@H]1O[C@H](COC(=O)CC(=O)O)[C@@H](O)[C@H](O)[C@H]1O | Diglycosidase derived from P. multicolor | aglycon | 86 |
| COc1cc2c(=O)c(-c3ccc(O)cc3)coc2cc1O[C@@H]1O[C@H](COC(C)=O)[C@@H](O)[C@H](O)[C@H]1O | Diglycosidase derived from P. multicolor | aglycon | 97.5 |

====

tested on: Crude diglycosidase; assay: Examination of substrate concentration in the conversion into isoflavone aglycons by diglycosidase using soybean materials; format: biochemical, Penicillium multicolor IAM7153; details: roasted soy flour, substrate concentration 10%, heat treatment of enzyme no, reaction time 3 h;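 further: percent of the isoflavone family total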
MEASURE: Decomposition efficiency: ratio of each glycoside/aglycon within its isoflavone family

| MOLECULE | DATA VALUE |
| --- | --- |
| CC(=O)OC[C@H]1O[C@@H](Oc2ccc3c(=O)c(-c4ccc(O)cc4)coc3c2)[C@H](O)[C@@H](O)[C@@H]1O | 21.5% |
| O=C(O)CC(=O)OC[C@H]1O[C@@H](Oc2ccc3c(=O)c(-c4ccc(O)cc4)coc3c2)[C@H](O)[C@@H](O)[C@@H]1O | not detected |
| COc1cc2c(=O)c(-c3ccc(O)cc3)coc2cc1O[C@@H]1O[C@H](COC(=O)CC(=O)O)[C@@H](O)[C@H](O)[C@H]1O | not detected |
| O=c1c(-c2ccc(O)cc2)coc2cc(O[C@@H]3O[C@H](CO)[C@@H](O)[C@H](O)[C@H]3O)ccc12 | not detected |

====

Entries annotated with measured Decomposition efficiency: ratio of each glycoside/aglycon within its isoflavone family
tested on: Crude diglycosidase; assay: Examination of substrate concentration in the conversion into isoflavone aglycons by diglycosidase using soybean materials; assay type: biochemical, Penicillium multicolor IAM7153; conditions: defatted soybean, substrate concentration 5%, heat treatment of enzyme yes, reaction time 6 h;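 further: percent of the isoflavone family total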
MEASURE: Decomposition efficiency: ratio of each glycoside/aglycon within its isoflavone family (%)

| MOLECULE | STUDY TARGET | VALUE UNIT | DATA VALUE |
| --- | --- | --- | --- |
| COc1cc2c(=O)c(-c3ccc(O)cc3)coc2cc1O[C@@H]1O[C@H](COC(=O)CC(=O)O)[C@@H](O)[C@H](O)[C@H]1O [malonylglycitin, 6″-O-malonylglycitin] | Crude diglycosidase | % | 58.5 |
| COc1cc2c(=O)c(-c3ccc(O)cc3)coc2cc1O [glycitein] | Crude diglycosidase | % | 41.5 |

====

system: Crude diglycosidase; assay: Examination of temperature in the conversion into isoflavone aglycons by diglycosidase using soybean materials; format: biochemical, Penicillium multicolor IAM7153; design: concentration or dose not given beside the values; conditions: 30° C., heat treatment of enzyme no, reaction time 1 h
Entries annotated with measured Decomposition efficiency of glycitin family in defatted soybean
MEASURE: Decomposition efficiency of glycitin family in defatted soybean (%)

| COMPOUND | STUDY TARGET | DATA VALUE |
| --- | --- | --- |
| COc1cc2c(=O)c(-c3ccc(O)cc3)coc2cc1O[C@@H]1O[C@H](COC(=O)CC(=O)O)[C@@H](O)[C@H](O)[C@H]1O [malonylglycitin, 6″-O-malonylglycitin] | Crude diglycosidase | 48.3 |
| COc1cc2c(=O)c(-c3ccc(O)cc3)coc2cc1O [glycitein] | Crude diglycosidase | 51.7 |

====

system: Crude diglycosidase; experiment: Examination of pH in the conversion into isoflavone aglycons by diglycosidase using soybean materials; type: biochemical, Penicillium multicolor IAM7153; conditions: pH3, heat treatment of enzyme no, reaction time 0 h, 55° C.
Entries annotated with measured Decomposition efficiency of daidzin family in roasted soy flour
MEASURE: Decomposition efficiency of daidzin family in roasted soy flour

| MOLECULE | DATA VALUE |
| --- | --- |
| CC(=O)OC[C@H]1O[C@@H](Oc2ccc3c(=O)c(-c4ccc(O)cc4)coc3c2)[C@H](O)[C@@H](O)[C@@H]1O | 47.4 |
| O=c1c(-c2ccc(O)cc2)coc2cc(O)ccc12 | 3.5 |
| O=c1c(-c2ccc(O)cc2)coc2cc(O[C@@H]3O[C@H](CO)[C@@H](O)[C@H](O)[C@H]3O)ccc12 | 49.1 |

====

tested on: Crude diglycosidase; test: Examination of substrate concentration in the conversion into isoflavone aglycons by diglycosidase using soybean materials; assay type: biochemical, Penicillium multicolor IAM7153; details: concentrated soybean protein, substrate concentration 20%, heat treatment of enzyme no, reaction time 6 h;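 further: percent of the isoflavone family total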
MEASURE: Decomposition efficiency: ratio of each glycoside/aglycon within its isoflavone family

| MOLECULE | DATA VALUE |
| --- | --- |
| CC(=O)OC[C@H]1O[C@@H](Oc2ccc3c(=O)c(-c4ccc(O)cc4)coc3c2)[C@H](O)[C@@H](O)[C@@H]1O | 37.9% |
| O=c1c(-c2ccc(O)cc2)coc2cc(O[C@@H]3O[C@H](CO)[C@@H](O)[C@H](O)[C@H]3O)ccc12 | not detected |
| COc1cc2c(=O)c(-c3ccc(O)cc3)coc2cc1O | 69.2% |
| O=C(O)CC(=O)OC[C@H]1O[C@@H](Oc2ccc3c(=O)c(-c4ccc(O)cc4)coc3c2)[C@H](O)[C@@H](O)[C@@H]1O | not detected |

====

test system: Crude diglycosidase; assay: Examination of pH in the conversion into isoflavone aglycons by diglycosidase using soybean materials; type: biochemical, Penicillium multicolor IAM7153; details: pH8.5, heat treatment of enzyme no, reaction time 1 h, 55° C.
MEASURE: Decomposition efficiency of daidzin family in roasted soy flour

| COMPOUND | DATA VALUE |
| --- | --- |
| O=c1c(-c2ccc(O)cc2)coc2cc(O)ccc12 [daidzein] | 36.9 |
| CC(=O)OC[C@H]1O[C@@H](Oc2ccc3c(=O)c(-c4ccc(O)cc4)coc3c2)[C@H](O)[C@@H](O)[C@@H]1O [acetyldaidzin, 6″-O-acetyldaidzin] | 42.7 |
| O=c1c(-c2ccc(O)cc2)coc2cc(O[C@@H]3O[C@H](CO)[C@@H](O)[C@H](O)[C@H]3O)ccc12 [daidzin] | 20.4 |

====

test system: Crude diglycosidase; assay: Examination of pH in the conversion into isoflavone aglycons by diglycosidase using soybean materials; assay type: biochemical, Penicillium multicolor IAM7153; settings: pH2.3, heat treatment of enzyme no, reaction time 0 h, 55° C.
MEASURE: Decomposition efficiency of glycitin family in soymilk

| COMPOUND | DATA VALUE |
| --- | --- |
| COc1cc2c(=O)c(-c3ccc(O)cc3)coc2cc1O [glycitein] | 7.2 |
| COc1cc2c(=O)c(-c3ccc(O)cc3)coc2cc1O[C@@H]1O[C@H](COC(=O)CC(=O)O)[C@@H](O)[C@H](O)[C@H]1O [malonylglycitin, 6″-O-malonylglycitin] | 42.6 |
| COc1cc2c(=O)c(-c3ccc(O)cc3)coc2cc1O[C@@H]1O[C@H](CO)[C@@H](O)[C@H](O)[C@H]1O [glycitin] | 50.2 |
